tested-on: Histone deacetylase (Eimeria tenella)
assay-protocol: Inhibitory activity against histone deacetylase (HDAC) from partially purified extracts of Eimeria tenella protozoal cells
value-kind: IC50 (nM)
Numeric answer only, unit nM assumed.

Worked cases, answers included:
>  <compound>
CC[C@H](C)[C@@H]1NC(=O)[C@H](Cc2cn(OC)c3ccccc23)NC(=O)[C@H](CCCCCC(=O)C(C)O)NC(=O)[C@H]2CCCCN2CC1=O (some centres not stated)

>  <tested-on>
Histone deacetylase (Eimeria tenella)

>  <reading>
4

$$$$
>  <compound>
CC[C@H](C)[C@@H]1NC(=O)[C@H](Cc2cn(OC)c3ccccc23)NC(=O)[C@H](CCCCCP(=O)(OC)OC)NC(=O)[C@H]2CCCCN2CC1=O

>  <tested-on>
Histone deacetylase (Eimeria tenella)

>  <reading>
850

$$$$
>  <compound>
CC[C@H](C)[C@@H]1NC(=O)[C@H](Cc2cn(OC)c3ccccc23)NC(=O)[C@H](CCCCCC(=O)C2CO2)NC(=O)[C@H]2CCCCN2CC1=O (some centres not stated)

>  <tested-on>
Histone deacetylase (Eimeria tenella)

>  <reading>
1

$$$$

In: I would be grateful if you could share the reported IC50 for CC[C@H](C)[C@@H]1NC(=O)[C@H](Cc2cn(OC)c3ccccc23)NC(=O)[C@H](CCCCCC(=O)O)NC(=O)[C@H]2CCCCN2CC1=O .
Out: 30

In: Again, but for CCCCCCCC[C@@H]1NC(=O)[C@H]2CCCCN2CC(=O)[C@H]([C@@H](C)CC)NC(=O)[C@H](Cc2cn(OC)c3ccccc23)NC1=O
Out: 300

In: Proceed to CC[C@H](C)[C@@H]1NC(=O)[C@H](Cc2cn(OC)c3ccccc23)NC(=O)[C@H](CCCCCC(=O)OC)NC(=O)[C@H]2CCCCN2CC1=O
Out: 0.8

In: Request: CCC(=O)CCCCC[C@@H]1NC(=O)[C@H]2CCCCN2CC(=O)[C@H]([C@@H](C)CC)NC(=S)[C@H](Cc2cn(OC)c3ccccc23)NC1=O
Out: 210
